Test system: NCI/ADR-RES ovarian
assay overview: NCI tumour cell line growth inhibition, 48 h; in the data active means GI50 below about 0.43 µM; inactive means the rest
Return exactly one item of active, inactive

CC1=C[C@@H]2c3c(c(O)c(O)c4oc5cc(O)cc(O)c5c(=O)c34)[C@@H](c3cc(O)c(O)c4oc5cc(O)cc(O)c5c(=O)c34)[C@@H]2C(C)(C)C1    inactive
CC12O[C@H](C[C@@H](OC(=O)CCC(=O)O)[C@H]1O)n1c3ccccc3c3c4c(c5c6ccccc6n2c5c31)C(=O)NC4=O    inactive
COc1ccc2nc3ccccc3c(NCCNCC(C)O)c2c1 (centres undefined)    inactive
CCOCCOCCOCCOCCOCCOCCOCCOCCOCCO (tested in a mixture with another compound)    inactive
O=C(NCCNCCO)c1ccc(Nc2nc3ccccc3c3occc23)cc1    inactive

## Task Outcome? COC(=O)c1cc(-c2ccc(S(C)(=O)=O)cc2)[nH]c1N/N=C/c1c(Cl)cccc1Cl
## Result active

## Task Outcome? Clc1ccc(-c2nc(NCc3ccco3)c3ccccc3n2)c(Cl)c1
## Result inactive

## Task Outcome? CCc1c(C)c2cc(-n3c(-c4ccc(OC)cc4)csc3=N)c(O)c(C)c2oc1=O
## Result inactive

## Task Outcome? N#CC1=C(N)OC2=C(CCOc3c2ccc2ccccc32)C1c1ccc(Br)cc1 (centres undefined)
## Result inactive
